All values here come from patent US20230183352A1.

biological target: T1, Claudin 18.2 (CLDN18.2), expressed on CHOS-CLDN 18.2 / HEK293-CLDN 18.2 / HCC827-CLDN 18.2 cells (human, UniProt P56856-2 1-261); assay: FACS, CHOS-CLDN18.2 cells, 1.250 µg/ml
T1 construct: whole, on cells; The species is not repeated for the CHOS-CLDN 18.2 cells; also called claudin-18A2
Listing: FACS reading of selected binders
OUTCOME_MEASURE: FACS reading

1. QP14501448 (antibody, human IgG1, kappa, V domains shown, Humanized from QP199200) VH: EVQLVESGGGLVQPGGSLRLSCAASGFTFSSFGMHWVRQAPGKGLEWVAYISSGSNSIYYVDTVKGRFTISRDNAKNSLYLQMNSLRDEDTAVYYCARNAYYGNSFDYWGQGTLVTVSS VL: DIVMTQSPDSLAVSLGERATISCKSSQSLLNSGNQKNYLTWYQQKPGQPPKLLIYWASTRESGVPDRFTGSGSGTVFTLTISSLQAEDVAVYFCQNNYYYPLTFGGGTKVEIKR ... 108000
2. QP199200 (antibody, human IgG1, V domains shown, Chimeric; also called 43C11; mouse-derived chimeric antibody QP199200) VH: DVQLVESGGGLVQPGGSRKLSCAASGFTFSSFGMHWVRQAPEKGLEWVAYISSGSNSIYYVDTVKGRFTISRDNPKNTLFLQMTSLKSEDTAMYYCARNAYYGNSFDYWGQGTTLTVSS VL: DIVMTQSPSSLTVTAGEKVTMSCKSSQSLLNSGNQKNYLTWYQQKPGQPPKLLIYWASTRESGVPDRFTGSGSGTVFTLTISSVQAEDLAVYFCQNNYYYPLTFGAGTKLELK ... 132000
3. QP024025 (antibody, human IgG1, V domains shown, also called IMAB362; 175D10(IMAB362)) VH: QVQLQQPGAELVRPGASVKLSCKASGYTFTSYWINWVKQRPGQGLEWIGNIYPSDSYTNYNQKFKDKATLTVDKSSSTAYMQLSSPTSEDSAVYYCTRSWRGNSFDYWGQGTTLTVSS VL: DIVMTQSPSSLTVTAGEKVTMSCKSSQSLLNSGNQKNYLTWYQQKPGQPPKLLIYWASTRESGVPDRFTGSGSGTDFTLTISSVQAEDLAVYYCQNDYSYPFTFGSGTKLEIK ... 63700
4. QP14501446 (antibody, human IgG1, kappa, V domains shown, Humanized from QP199200) VH: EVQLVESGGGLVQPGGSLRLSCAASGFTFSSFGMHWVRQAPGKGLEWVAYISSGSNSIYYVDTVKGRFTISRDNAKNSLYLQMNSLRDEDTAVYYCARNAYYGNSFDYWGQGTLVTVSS VL: DIVMTQSPDSLAVSLGERATINCKSSQSLLNSGNQKNYLTWYQQKPGQPPKLLIYWASTRESGVPDRFSGSGSGTDFTLTISSLQAEDVAVYYCQNNYYYPLTFGGGTKVEIKR ... 96200
5. QP14491448 (antibody, human IgG1, kappa, V domains shown, Humanized from QP199200) VH: EVQLVESGGGLVQPGGSLRLSCAASGFTFSSFGMHWVRQAPGKGLEWVSYISSGSNSIYYVDTVKGRFTISRDNAKNSLYLQMNSLRDEDTAVYYCARNAYYGNSFDYWGQGTLVTVSS VL: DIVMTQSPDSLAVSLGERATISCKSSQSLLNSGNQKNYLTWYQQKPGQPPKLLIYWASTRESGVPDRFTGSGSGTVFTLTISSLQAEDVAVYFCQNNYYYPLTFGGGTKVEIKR ... 132000
